- target_under_test: SARS-CoV-2 spike RBD (WT) (Severe acute respiratory syndrome …, UniProt P0DTC2)
- procedure_text: ELISA
- Set-up: unit not given here
Provide the reported binding score of each item.
# output: bare number, no unit

[in] Need binding score of D013 (antibody, V domains shown) VH: QVQLVQSGAEVKKPGASVRISCKTSGYIFAYYFIHWFRQAPGQGPEWMGWINPKSGGTNYAQKFQDRVTMTTDSSITTAFMALRSLRSDDTAVYYCTREGVGTISDAGFGYWGQGTPVTVSS VL: SYVLTQPPSVSVAPGKTATITCGGNNIGSKSVHWYHQKPGQAPVMVVYNDKERPSGIPERFSGSKSGNTATLTITWVEADDEADYYCQAWDRPSGYVFGTGTKVTVL , thanks.
[out] 1330

[in] // next record C2710 (antibody, V domains shown) VH: EVQLVESGGGLVQPGGSLRLSCAASGFTFSSYWMSWVRQAPGKGLEWVANINQDGSEIHYVDSVKGRFTISRDNAKNSLYLQMNSLRAEDTAVYYCAREGGPYDFWSGSNWFDPWGQGTLVTVSS VL: QSALTQPASVSGSPGQSITISCTGTSSDVGGYNFVSWYQQRPGKAPKLMIYEVHNRPSGVSNHFSGSKSGNTASLTISGLQAEDEADYYCSSYTSNSLYVFGTGTKVTVL
[out] 9.12

All figures here come from paper PMC9876794.
